meta.source: patent US20220356229A1

Attribute: median fluorescence intensity, fold over isotype control
- ASSAYED TARGET: SARS-CoV full length Spike (SARS-CoV, UniProt P59594 14-1190)
Numeric only. Scale: fold over isotype

Please review the following examples before continuing.
mAb 1585 (antibody, V domains shown) VH: QVQLVESGGGVVQPGRSLRLSCAASGFTFSRFTLHWVRQAPGKGLEWVAVISYDGSNKYYADSVKGRFTISRDNSKSTLYLQMNSLRAEDTGVYYCARDPSTVTGYFDYWGQGTLVTVSS VL: SYVLTQPPSVSVAPGKTAKISCGGDSIGSKSVHWYQQKPGQAPVLVIYYDNDRPSGIPERFSGSNSGNTATLTISRVEAGDEADYYCQVWDIGVVFGGGTKLTVLG	25.8
mAb 1015 (antibody, V domains shown) VH: EVQLVESGGGLVQPGGSLRLSCAASGFTFSSYWMHWVRQAPGKGLVWVSHINSDGSSTSYADSVKGRFTISRDNAKNTLYLQMNSLRAEDTAVYYCARGLRYFDLDVWGQGTTVTVSS VL: QSVLTQPPSVSEAPRQRVTISCSGSSSNIGNNAVNWYQQLPGKAPKLLIFYDDLLPSGVSDRFSGSKSGTSASLAISGLQSEDEADYYCAAWDDSLNGGVFGGGTKLTVLG	0.91

Input: median fluorescence intensity, fold over isotype control lookup needed for mAb 1444 (antibody, V domains shown) VH: QVQLVQSGAEVKKPGASVKVSCKASGYTFTAYYMHWVRQAPGQGLEWMGWINPNSDDTNYAQKFQGRVTMTRDTSISTAYMELSRLRSDDTAVYYCAREEGVFTIGDRYFDLWGRGTLVSVSS VL: QTVVTQEPSFSVSPGGTVTLTCGLSSGSVSTSYYPSWYQQTPGQAPRTLIYNTNTRSSGVPDRFSGSILGNKAALTITGAQADDESDYYCVLYMGSGIWVFGGGTKLTVLG , thanks.
Output: 1.03
